measurement.target: T1, full-length mouse CD70 with C-terminal V5 tag (mouse, UniProt O55237 1-195)
T1 construct: On transfected CHO cells; also called murine CD70
T1 sequence: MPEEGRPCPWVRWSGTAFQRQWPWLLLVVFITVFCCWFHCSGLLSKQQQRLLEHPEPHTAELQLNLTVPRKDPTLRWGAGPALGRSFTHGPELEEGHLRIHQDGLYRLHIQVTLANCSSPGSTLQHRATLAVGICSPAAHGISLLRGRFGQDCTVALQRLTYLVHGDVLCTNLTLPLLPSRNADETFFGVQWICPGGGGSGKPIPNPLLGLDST
assay.comment: FACS on CHO cells, periplasmic scFv
observed.property: binding result

INSERT INTO results (binder, observed_property, result) VALUES
  ('CD70-5 (scFv, As m32) scFv: QVQLQESGPGLVKPSQTLSLTCTVSGDSIISGGYYWSWIRQHPGKGLEWIGYIFYSGSTDYNPSLKSRVTISVDTSKNQFSLKLSSVTAADTAVYYCARSGYSYALFDHWGQGTLVTVSSGGGGSGGGGSGGGGSDIQMTQSPSSLSASVGDRVTISCRASQFIGRYFNWYQQQPGKAPKVLIYAESSLQSGVPSRFSGSGSGTEFTLTISSLQPEDFARYYCQQSYSTPWTFGQGTKVEIK', 'binding result', 'no binding'),
  ('CD70-9 (scFv, As m32) scFv: QVQLVQSGAEVKKPGASVKVSCKASGYTFTSYGISWVRQAPGQCLEWMGWISAYNGYTHYAQKLQGRVTMTTDTSTSTAYMELRSLRSDDTAVYYCARDYGGNDYYGMDVWGQGTTVTVSSGGGGSGGGGSGGGGSQSVLTQPPSASGTPGQRVTISCSGSSSNIGINYVYWYQQLPGTAPKLLIYRSDQRPSGVPDRFSGSKSGTSASLALSGLRSEDEADYYCAAWDDSLSGVVFGCGTKLTVL', 'binding result', 'no binding');
